The entries below are paired with their reported cell viability.
Tested on: NOMO1
Assay: cell viability relative to DMSO control; higher = less cytotoxic
Settings: HPLM + 10% dialyzed FBS; 48 h; 0.00702 µM
Give the value, in units of %, as a plain number.

Illustrative cases are given below, each with its answer.
molecule | tested.on | cell viability, %
COc1cc2c(NC3CCN(C(C)C)CC3)nc(C3CCCCC3)nc2cc1OCCCN1CCCC1 | NOMO1 | 123
Cc1ccccc1C(C(=O)NC1CCCCC1)N(C(=O)CNc1ccc(C#N)cc1)c1cccc(F)c1 (configuration not stated) | NOMO1 | 115
C[Se]CCC(N)C(=O)O (configuration not stated) | NOMO1 | 85.7

stdin: Suppose we examine the molecule "C[C@@H]1CN(CC(=O)N2CC(C)(C)c3ncc(Cc4ccc(F)cc4)cc32)[C@@H](CN2CCOC[C@H]2C)CN1" ; what cell viability value has been reported?
stdout: 145

* * *

cell viability reference
Tested on: SEM cells
Test: cell viability relative to DMSO control; higher = less cytotoxic
Conditions: HPLM + 10% dialyzed FBS; 48 h; 0.569 µM
Numeric only. Scale: %

molecule | tested.on | cell viability / %
CC1=C(/C=C/C(C)=C/C=C/C(C)=C/C(=O)Nc2ccc(O)cc2)C(C)(C)CCC1 | SEM cells | 85.1
CCc1cc(/C(C)=N/OCc2ccc(C3CCCCC3)c(C(F)(F)F)c2)ccc1CN1CC(C(=O)O)C1 | SEM cells | 120
c1ccc2c(-c3cnn4cc(-c5ccc(N6CCNCC6)cc5)cnc34)ccnc2c1 | SEM cells | 122
Cc1c(OCC(F)(F)F)ccnc1C[S+]([O-])c1nc2ccccc2[nH]1 (stereo not drawn) | SEM cells | 106
O=C(C1CCCCC1)N1CC(=O)N2CCc3ccccc3C2C1 (stereo not drawn) | SEM cells | 97.1
CC1(C)O[C@H]2CC(=O)OC[C@]23[C@H]2CC[C@@]4(C)[C@H](c5ccoc5)OC(=O)[C@H]5O[C@]54[C@]2(C)C(=O)C[C@@H]13 | SEM cells | 104
CC1(C)OC/2=C(\[C@H](NCC3=CC=CC=C3)[C@@H]1O)C(=O)C4=CC=CC=C4C2=O | SEM cells | 106

Please turn your attention to the following entry.
stdin: Need cell viability of "O=C(Oc1ccc([N+](=O)[O-])cc1)N1CCN(Cc2cccc(Oc3ccccc3)c2)CC1" , thanks.
stdout: 120

* * *

Test system: NOMO1
Assay: cell viability relative to DMSO control; higher = less cytotoxic
Details: HPLM + 10% dialyzed FBS; 48 h; 0.00234 µM
parameter: cell viability (%)
Just the number in %, nothing appended.

Previously resolved entries follow.
molecule | tested.on | parameter | reported.value
Cn1cc(-c2ccc3ncc(Cc4ccc5ncccc5c4)n3n2)cn1 | NOMO1 | cell viability | 96.5
CCOc1cc2c(c(F)c1OCC)C(=N)N(CC(=O)c1cc(N3CCOCC3)c(OC)c(C(C)(C)C)c1)C2 | NOMO1 | cell viability | 121
CCCCc1oc2ccc(NS(C)(=O)=O)cc2c1C(=O)c1ccc(OCCCN(CCCC)CCCC)cc1 | NOMO1 | cell viability | 107

stdin: Field request: cell viability | item: "COC1=CC=C2C(=CC=NC2=C1)OC3=CC=C(NC(=O)\C4=C(C)\N(CC(C)(C)O)N(C4=O)C5=CC=CC=C5)C=C3F"
stdout: 116

stdin: Can you look up the measured cell viability of CCOc1ccccc1OCCNC(C)Cc1ccc(OC)c([S+](N)(=O)[O-])c1 (stereo not given) for me?
stdout: 105

stdin: State the recorded cell viability for this entry: C[C@H]1CCC/C=C/C2C[C@H](O)C[C@H]2[C@H](O)/C=C/C(=O)O1 (stereo not given in full)
stdout: 15.8

stdin: Which cell viability is reported for this molecule? "Cc1ccc(F)c(NC(=O)Nc2ccc(-c3cccc4[nH]nc(N)c34)cc2)c1"
stdout: 111

stdin: Using the record for C[Se]CCC(N)C(=O)O (stereo not given) , report its cell viability.
stdout: 90.2

stdin: Requested field: cell viability. Item: "C=C1C[C@@]2(O)O[C@@]3(C[C@H]2C(C)C)[C@@H](C)CC[C@@H]13"
stdout: 94.8

stdin: Entry "COc1ccc2cccc(CCNC(C)=O)c2c1" has what cell viability?
stdout: 114

stdin: # input molecule: "O=C(c1ccc(F)cc1)C1CCN(CCn2c(=O)[nH]c3ccccc3c2=O)CC1" ; wanted: its cell viability
stdout: 117

stdin: Fill in: cell viability of "CO[C@@H]1[C@H](N(C)C(=O)c2ccccc2)C[C@H]2O[C@]1(C)n1c3ccccc3c3c4c(c5c6ccccc6n2c5c31)C(=O)NC4" is ___
stdout: 104

stdin: cell viability lookup needed for "Nc1ccc([S+](=O)([O-])Nc2ccccn2)cc1" , thanks.
stdout: 106

stdin: Quick check: cell viability of CC(=O)SCC(Cc1ccccc1)C(=O)NCC(=O)OCc1ccccc1 (stereo not given) ?
stdout: 85.1

stdin: I have this molecule here, "CC(C)(O)CNc1nc(Nc2ccnc(C(F)(F)F)c2)nc(-c2cccc(C(F)(F)F)n2)n1" , and I need its recorded cell viability.
stdout: 99.4

stdin: Look at this molecule and give its reported cell viability. Cc1c(OCC(F)(F)F)ccnc1C[S+]([O-])c1nc2ccccc2[nH]1 (stereo not given)
stdout: 100

stdin: // cell viability lookup, key: "COc1ccc(-c2c(-c3ccc(O)cc3O)n[nH]c2C)cc1"
stdout: 115

stdin: Fill in: cell viability of "CC(Oc1ccc(O)cc1)(P(=O)(O)O)P(=O)(O)O" is ___
stdout: 115

stdin: Which cell viability is listed for "CCCn1c(=O)c2[nH]c(-c3cnn(Cc4cccc(C(F)(F)F)c4)c3)nc2n(CC)c1=O" ?
stdout: 113

stdin: Find the recorded cell viability belonging to "COc1cc(N2CCC(N3CCN(C)CC3)CC2)ccc1Nc1ncnc(Nc2ccccc2[S+](=O)([O-])C(C)C)n1" and report it.
stdout: 92.9

* * *

The compounds listed here are annotated with their cell viability.
System: SEM cells
Assay: cell viability relative to DMSO control; higher = less cytotoxic
Details: HPLM + 10% dialyzed FBS; 48 h; 0.0211 µM
Record the value in %, omitting the unit from your answer.

// solved cases for cell viability follow
compound | endpoint.unit | reported.value
c1cc(OCCN2CCCCC2)cc(-c2n[nH]c3ccc(-c4nc[nH]n4)cc23)c1 | % | 107
Cn1cc(-c2ccc3ncc(Cc4ccc5ncccc5c4)n3n2)cn1 | % | 98.8
CCCCc1oc2ccc(NS(C)(=O)=O)cc2c1C(=O)c1ccc(OCCCN(CCCC)CCCC)cc1 | % | 87.6
O=C(C1CCCCC1)N1CC(=O)N2CCc3ccccc3C2C1 (stereo not given) | % | 108
COc1ccc([C@@H]2CNC(=O)C2)cc1OC1CCCC1 | % | 102

stdin: Any idea what its cell viability is? The compound is "CC(C)(C)C1=NC2=C([NH]1)C3=CC=C(F)C=C3C4=C2\C=C/NC4=O"
stdout: 130

stdin: # query: cell viability of entry CCOP(=O)(OCC)C(C)NC(=O)N(CCCl)N=O (stereo not given)
stdout: 114

stdin: For the compound shown here, "CC(Oc1ccc(O)cc1)(P(=O)(O)O)P(=O)(O)O" , give the reported cell viability.
stdout: 108

stdin: Name the reported cell viability value associated with the compound CCOc1ccccc1OCCNC(C)Cc1ccc(OC)c([S+](N)(=O)[O-])c1 (stereo not given)
stdout: 103

stdin: Give its cell viability value. Item: "Cn1cc(-c2ccncc2)c(-c2ccc(OCc3ccc4ccccc4n3)cc2)n1"
stdout: 134

* * *

Tested on: SEM cells
Assay: cell viability relative to DMSO control; higher = less cytotoxic
Settings: RPMI 5 mM glucose + 10% dialyzed FBS; 48 h; 0.569 µM
Listed below: cell viability values for each entry.
Kindly provide the numeric value in % only, without the unit symbol.

compound | parameter | reported.value
Cc1cc(SCc2sc(-c3ccc(C(F)(F)F)c(F)c3)nc2C)ccc1OCC(=O)O | cell viability | 100

stdin: May I ask what cell viability has been recorded for "CC(Oc1ccc(O)cc1)(P(=O)(O)O)P(=O)(O)O" ?
stdout: 90.1

* * *

// values below are reported cell viability
Tested on: P12-Ichikawa
Assay: cell viability relative to DMSO control; higher = less cytotoxic
Conditions: RPMI 5 mM glucose + 10% dialyzed FBS; 48 h; 0.000781 µM
Your answer is read as %, so omit the unit and give the number.

Some solved cases for reference:
compound | reported.value
Cc1cc(SCc2sc(-c3ccc(C(F)(F)F)c(F)c3)nc2C)ccc1OCC(=O)O | 93.3
COc1ccc(CCC(=O)Nc2nc3ccc(Cl)cc3s2)cc1OC | 113
CC(Oc1ccc(O)cc1)(P(=O)(O)O)P(=O)(O)O | 97.1
CC1OC(OC/2=C(/OC3=C(C(=CC(=C3)O)O)C2=O)C4=CC=C(O)C=C4)C(O)C(OC(C)=O)C1OC(C)=O (stereo not given) | 114

Next compound, please.
stdin: Give its cell viability value. Item: "NC\1=N\C(=O)N(\C=N1)[C@H]2C[C@H](O)[C@@H](CO)O2"
stdout: 107
